Target: hNTS2 (Homo sapiens)
Construct: expressed in transfected cells; host or cells: CHO-K1
Sequence (O95665 whole entry): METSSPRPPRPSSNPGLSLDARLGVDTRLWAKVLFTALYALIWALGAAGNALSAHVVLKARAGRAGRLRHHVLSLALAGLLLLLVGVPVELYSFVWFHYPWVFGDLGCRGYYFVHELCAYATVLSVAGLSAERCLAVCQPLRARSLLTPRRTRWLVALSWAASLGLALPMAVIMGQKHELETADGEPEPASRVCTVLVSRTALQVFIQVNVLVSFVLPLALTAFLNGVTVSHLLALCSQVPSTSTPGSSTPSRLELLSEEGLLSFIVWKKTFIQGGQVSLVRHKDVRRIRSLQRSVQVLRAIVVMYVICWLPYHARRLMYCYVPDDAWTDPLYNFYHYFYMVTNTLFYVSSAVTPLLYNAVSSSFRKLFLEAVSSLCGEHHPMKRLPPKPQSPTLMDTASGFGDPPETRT
Assay: Radioligand competition binding with [3H]NT, membranes of CHO-K1 cells expressing hNTS2
Settings: Table 2; hNTS2 over hNTS1
Where no end group is shown, it is not given here.
Binary label based on hNTS2 Selectivity with cut-off 1: below gives MET, not below gives NOT MET.

RRPYVL [NT10, [L-Val^12]NT(8-13)] = NOT MET
RRPYLL [NT09, [L-Leu^12]NT(8-13)] = NOT MET
KRPYIL [NT17, [L-Lys^8]NT(8-13)] = MET

input: Please state whether hNTS2 Selectivity is below 1 for RRPAIL [NT08, [Ala^11]NT(8-13)]
output: NOT MET

input: Please state whether hNTS2 Selectivity is below 1 for RRGYIL [NT07, [Gly^10]NT(8-13)]
output: NOT MET

input: Please state whether hNTS2 Selectivity is below 1 for RKPYIL [NT18, [L-Lys^9]NT(8-13)]
output: NOT MET

* * *

Target: hNTS1 (Homo sapiens)
Construct: expressed in transfected cells; host or cells: CHO-K1
Assay: Radioligand competition binding with [3H]NT, membranes of CHO-K1 cells expressing hNTS1
Conditions: Table 2; hNTS1 over hNTS2
Where no end group is shown, it is not given here.
Item-by-item account of hNTS1 Selectivity
Note: the reply should be a number with no unit written.

Study these solved cases before continuing.
RRGYIL [NT07, [Gly^10]NT(8-13)] = 0.7
RRPYLL [NT09, [L-Leu^12]NT(8-13)] = 0.3
RRPYVL [NT10, [L-Val^12]NT(8-13)] = 0.8
RKPYIL [NT18, [L-Lys^9]NT(8-13)] = 0.8
KRPYIL [NT17, [L-Lys^8]NT(8-13)] = 4.0

input: State the recorded hNTS1 Selectivity for this entry: RRPAIL [NT08, [Ala^11]NT(8-13)]
output: 0.02

* * *

Molecular target: hNTS1 (Homo sapiens, UniProt P30989)
Construct: expressed in transfected cells; host or cells: CHO-K1
Sequence (P30989 whole entry): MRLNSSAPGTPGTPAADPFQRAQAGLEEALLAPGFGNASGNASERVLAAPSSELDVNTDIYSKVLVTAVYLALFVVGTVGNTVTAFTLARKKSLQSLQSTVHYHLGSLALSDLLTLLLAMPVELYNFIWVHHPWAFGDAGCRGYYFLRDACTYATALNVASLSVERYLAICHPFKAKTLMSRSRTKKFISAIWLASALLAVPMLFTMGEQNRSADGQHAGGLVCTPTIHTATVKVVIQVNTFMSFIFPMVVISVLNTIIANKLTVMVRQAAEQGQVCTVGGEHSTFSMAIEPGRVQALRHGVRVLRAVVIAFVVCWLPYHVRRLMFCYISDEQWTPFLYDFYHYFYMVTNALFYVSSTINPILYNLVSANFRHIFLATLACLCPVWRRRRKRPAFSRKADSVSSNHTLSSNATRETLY
Assay: Radioligand competition binding with [3H]NT, membranes of CHO-K1 cells expressing hNTS1
Where no end group is shown, it is not given here.
Item-by-item account of pKd
Answer as the number alone; pKd is minus log10 of concentration in mol/L.

Study these solved cases before continuing.
RRGYIL [NT07, [Gly^10]NT(8-13)] = 5.86
RRPYLL [NT09, [L-Leu^12]NT(8-13)] = 8.14
RRPAIL [NT08, [Ala^11]NT(8-13)] = 5.60
RRPYVL [NT10, [L-Val^12]NT(8-13)] = 7.95

input: State the recorded pKd for this entry: RKPYIL [NT18, [L-Lys^9]NT(8-13)]
output: 8.83

* * *

Target: hNTS2 (Homo sapiens)
Construct: expressed in transfected cells; host or cells: CHO-K1
Test: Radioligand competition binding with [3H]NT, membranes of CHO-K1 cells expressing hNTS2
Conditions: Table 2; read-out: hNTS2 Geometric Mean ∀ SEM (equilibrium dissociation constant Kd)
Where a SMILES comes first, the peptide text is derived from it. [ ]: non-standard residue; d: D form. NMeR = CN[C@@H](CCCNC(=N)N)C(=O)O; Tle = CC(C)(C)[C@H](N)C(=O)O; dOrn = NCCC[C@@H](N)C(=O)O
Item-by-item account of Kd
Answer format: numeric, nM implied, no suffix.

Study these solved cases before continuing.
CN[C@@H](CCCNC(=N)N)C(=O)N[C@H](CCCN)C(=O)N1CCC[C@H]1C(=O)N[C@@H](Cc1c[nH]c2ccccc12)C(=O)N[C@H](C(=O)N[C@@H](CC(C)C)C(=O)O)C(C)(C)C [NT78T] (H-[NMeR][dOrn]PW[Tle]L-OH; N-terminus and C-terminus assumed) = 660
CC[C@H](C)[C@H](NC(=O)[C@H](Cc1ccc(O)cc1)NC(=O)[C@@H]1CCCN1C(=O)[C@@H](CCCN)NC(=O)[C@@H](N)CCCN)C(=O)N[C@@H](CC(C)C)C(=O)O [NT26, [L-Orn^8,D-Orn^9]NT(8-13)] = 1080

input: State the recorded Kd for this entry: CC[C@H](C)[C@H](NC(=O)[C@H](Cc1ccc(O)cc1)NC(=O)[C@@H]1CCCN1C(=O)[C@@H](CCCN)NC(=O)[C@H](N)CCCN)C(=O)N[C@@H](CC(C)C)C(=O)O [NT28, [D-Orn^8,D-Orn^9]NT(8-13)]
output: 1900

input: State the recorded Kd for this entry: CC[C@H](C)[C@H](NC(=O)[C@H](Cc1ccc(O)cc1)NC(=O)[C@@H]1CCCN1C(=O)[C@H](CCCN)NC(=O)[C@H](N)CCCN)C(=O)N[C@@H](CC(C)C)C(=O)O [NT27, [D-Orn^8,L-Orn^9]NT(8-13)]
output: 24
